This collection of values is drawn from patent US20150239950A1.

target: T1, ActRII-ECD (extracellular domain of mouse ActRII, residues 1-102) (mouse, UniProt P27038 20-135); experiment: SPR (BIAcore), receptor ECD immobilized, ligand flowed; KD = koff/kon; single trial
T1 construct: extracellular domain; also called type II receptor ECD
T1 sequence (P27038 20-135): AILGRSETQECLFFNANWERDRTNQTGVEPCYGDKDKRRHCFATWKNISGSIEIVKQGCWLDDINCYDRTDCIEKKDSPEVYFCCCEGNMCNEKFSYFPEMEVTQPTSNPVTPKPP
pKd: −log10 of the molar value.
Use 9 as the dividing line for pKd, with the line itself on the Yes side and lower values as No.

BMP2 homodimer (mature domain of human BMP2) (ligand, also called BMP-2wt; BMP-2ma) QAKHKQRKRLKSSCKRHPLYVDFSDVGWNDWIVAPPGYHAFYCHGECPFPLADHLNSTNHAIVQTLVNSVNSKIPKACCVPTELSAISMLYLDENEKVVLKNYQDMVVEGCGCR = No
AB2-012 (1b2b3b4b5b6a activin/BMP-2 chimera) (ligand) MQAKHKQRKRLKSSCKRHPLYVDFSDVGWNDWIVAPPGYHAFYCHGECPFPLADHLNSTNHAIVQTLVNSVNSKIPKACCVPTELSAISMLYYDDGRNIIKKDIQNMIVEECGCS = Yes
AB2-011 (1b2b3b4b5a6a activin/BMP-2 chimera) (ligand) MQAKHQQRKRLKSSCKRHPLYVDFSDVGWNDWIVAPPGYHAFYCHGECPFPLADHLNSTNHAIVQTLVNSVNSKIPKACCVPTKLRPSMLYYDDGQNIIKKDIQNMIVEECGCS = Yes
AB2-015 (1b2a3b4b5b6a activin/BMP-2 chimera) (ligand) MQAKHKQRKRLKSSCKRHPLYVDFSDVGWNDWIIAPSGYHANYCDGECPFPLADHLNSTNHAIVQTLVNSVNSKIPKACCVPTELSAISMLYYDDGQNIIKKDIQNMIVEECGCS = Yes

-- ask Given the entry AB2-004 (1b2a3b4b5a6a activin/BMP-2 chimera) (ligand) MQAKHKQRKRLKSSCKRHPLYVDFSDVGWNDWIIAPSGYHANYCDGECPFPLADHLNSTNHAIVQTLVNSVNSKIPKACCVPTKLRPMSMLYYDDGQNIIKKDIQNMIVEECGCS , answer whether its pKd meets or surpasses 9.
-- reply Yes

-- ask Given the entry Activin-βA (ligand, also called Activin-A) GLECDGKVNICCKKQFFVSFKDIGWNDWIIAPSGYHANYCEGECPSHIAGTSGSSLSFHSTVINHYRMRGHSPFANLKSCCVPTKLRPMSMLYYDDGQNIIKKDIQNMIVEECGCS , answer whether its pKd meets or surpasses 9.
-- reply Yes
